Source listed as ChEMBL document CHEMBL1201862.

Please respond with reported GI50 for every item in the list.
# System: SK-MEL-2
# assay_overview: NCI tumour cell line growth inhibition, 48 h
Calls of active or inactive are those of the source. Rule as the data show it: active = GI50 up to about 1.1 µM and inactive = higher.

Worked cases, GI50 given:
{"compound": "O=[N+]([O-])c1ccc(NC(=S)N/N=C(\\c2ccccc2)c2ccccn2)cc1", "target_system": "SK-MEL-2", "result": "1.76 µM (inactive)"}
{"compound": "COc1ccc(C2OC(c3ccncc3)=NN2C)cc1F (stereo not given)", "target_system": "SK-MEL-2", "result": "> 100 µM (inactive)"}
{"compound": "C[C@H]1C[C@H]2[C@@H]3CCC4=CC(=O)C=C[C@]4(C)C3=CC[C@]2(C)[C@@]1(O)C(=O)CO", "target_system": "SK-MEL-2", "result": "> 100 µM (inactive)"}
{"compound": "COc1ccc(C(=O)Nc2ccc(S(=O)(=O)NCC(=O)O)cc2)cc1", "target_system": "SK-MEL-2", "result": "> 100 µM (inactive)"}

API: the following record is the query input.
Sure, the documented GI50 for `Nc1nc(N)nc(CCCCc2nc(N)nc(N)n2)n1` is > 100 µM (inactive)
